- Tested on: HCC-2998 colon
- assay-procedure: NCI tumour cell line growth inhibition, 48 h
metric: GI50

Cn1cc(C2=C(c3cn(C)c4ncccc34)C(=O)NC2=O)c2ccccc21 = > 21.2 µM
CCCCOC(=O)C1OC(O[C@H]2CCC3(C)C(CCC4(C)C3CC=C3C5CC(C)(C)CCC5(C(=O)O)CC[C@]34C)C2(C)C)C(OC2OC(CO)C(O)C(O)C2O)C(OC2OC(CO)C(O)C(O)C2O)C1O (some centres not stated) = 21.8 µM
CC1(C)CCc2c(c3c(c4c(=O)c(O)c(-c5ccc(O)cc5)oc24)OC(C)(C)CC3)O1 = > 100 µM

I have 4 compounds here; please give me GI50 for each one.
1. C=C(CN1CCN(c2ccc(Cl)cc2F)CC1)c1ccc(C(=O)Nc2ccccc2N)cc1
2. O=C1C(Cl)=C(Nc2cccc(Cl)c2)C(=O)N1Cc1ccc(Cl)cc1Cl
3. C#Cc1ccc(-n2c(/C=C/c3ccc(C(F)(F)F)cc3)nc3ncccc3c2=O)cc1
4. COc1ccc(C(=O)Cn2c(C(=O)c3ccccc3)nc(-c3ccc(OC)cc3)c2-c2ccc(OC)cc2)cc1

1: 3.84 µM; 2: 4.23 µM; 3: 1.96 µM; 4: > 100 µM

====

Provide the reported TGI of each item.
- Test system: OVCAR-3 ovarian
- assay-procedure: NCI tumour cell line growth inhibition, 48 h

NNC(=O)Nc1cccnc1 = > 100 µM
CC(=O)NNc1nc(C)c(C(=O)NNC(=O)C(=O)Nc2c(Cl)cc([N+](=O)[O-])cc2Cl)s1 = 52.8 µM
Cc1cn(C2CC(n3cc(Cn4cc(I)c(=O)[nH]c4=O)nn3)C(CO)O2)c(=O)[nH]c1=O (stereo not given) = > 100 µM

Fill in TGI for each of the 2 molecules listed.
1. O=C(NNC(=O)c1ccccc1SSc1ccccc1C(=O)NNC(=O)c1ccccc1S)c1ccccc1S
2. O=C(O)c1cccc2c1/C(=N/Nc1ccccc1)CC2

> 100 µM
> 100 µM

====

- Tested on: HL-60(TB) leukemia
- assay-procedure: NCI tumour cell line growth inhibition, 48 h
Hi there, I'd appreciate the recorded TGI for every entry that follows.

CSc1nc2c(c(=O)[nH]1)N=C1c3ccccc3C(=O)C1C(c1ccccc1)N2 (stereo not given) = > 100 µM
CC(C)CCCCCCCCCCCCC(=O)NCC(=O)NC1C(C)OC(Nc2ncnc3c2ncn3C)C(O)C1O (stereo not given) = 6.08 µM
CNC(=O)OCC1=C(COC(=O)NC)C(C)N(c2ccc(OC)cc2)C1 (stereo not given) = 55.2 µM
[N-]=[N+]=Nc1cc(=O)oc2ccccc12 = > 100 µM
CC[C@@]1(C[C@H]2C[C@@]3(C(=O)OC)c4[nH]c5ccccc5c4CCN3C2=O)COC2(CCCCC2)O1 = > 100 µM
CCOC(=O)c1c2ccccc2n2c(N)c(C(N)=O)nnc12 = > 100 µM
COC1(OC)CCC2C1C1CCC(OC)(OC)C21 (stereo not given) = > 50 µM
CCN(CC)CCC(=O)Nc1ccc2c(c1)C(=O)c1ccc(NC(=O)CCN(CC)CC)cc1C2=O = 16.7 µM
O=C1CCC23CC(C=CC=C12)n1c(=O)n(-c2ccccc2)c(=O)n13 (stereo not given) = > 80.5 µM

Here is another compound to look at.
Tell me measured TGI for `COC(=O)[C@H]1CO[C@@H](C(C)(C)C)N1C(=O)N1C=CC(=O)C[C@@H]1C` please.
> 100 µM
